Value source: patent US9346809B2

- assayed system: TYK2 (aa 871-1187, catalytic domain, GST-tag) (Homo sapiens)
- Construct: JAK1 (aa 850-1154) and TYK2 (aa 871-1187) are expressed with an N-terminally fused GST-tag; GST (N); purchased Carna Biosciences, Inc; host or cells: baculovirus expression system
- Sequence (P29597 871-1187): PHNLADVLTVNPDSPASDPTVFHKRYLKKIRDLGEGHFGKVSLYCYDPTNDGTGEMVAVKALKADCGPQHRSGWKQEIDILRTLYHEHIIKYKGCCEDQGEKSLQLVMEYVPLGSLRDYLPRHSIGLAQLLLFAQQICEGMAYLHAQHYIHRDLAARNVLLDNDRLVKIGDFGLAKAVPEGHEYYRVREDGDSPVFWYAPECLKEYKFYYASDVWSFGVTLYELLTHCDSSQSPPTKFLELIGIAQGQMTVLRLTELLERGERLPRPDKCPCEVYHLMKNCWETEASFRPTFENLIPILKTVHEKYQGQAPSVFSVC
- assay explanation: JAK kinase assay (HTRF, phosphorylation of TK substrate-biotin), TYK2
- Assay type: biochemical
- run conditions: ATP at Km (13 μM); read-out: TYK2 kinase inhibitory activity (EC50 indicator)
I'd appreciate it if you could supply EC50 values for the items below.

Example entries and their recorded answers appear below.
{"compound": "Cn1cc(S(N)(=O)=O)cc1C(=O)N1C2CCC1CN(c1ncnc3[nH]ccc13)C2 [Example 142]", "EC50": "100 to 500 nM"}
{"compound": "O=C(c1ccc(C(F)(F)F)cc1)N1[C@@H]2CC[C@H]1CN(c1ncnc3[nH]ccc13)C2 [Example 1]", "EC50": "> 500 nM"}
{"compound": "O=C1CC(C(=O)N2CCN(c3ncnc4[nH]ccc34)CC23CC3)c2ccccc21 (centres unmarked) [Example 126]", "EC50": "> 500 nM"}
{"compound": "O=C(CCC(F)(F)F)N1[C@@H]2CC[C@H]1CN(c1ncnc3[nH]ccc13)C2 [Example 181]", "EC50": "100 to 500 nM"}
{"compound": "COCCOCC(=O)Nc1nc(N2CCN(C(=O)Cc3ccc(C#N)cc3)C3(CC3)C2)c2cc[nH]c2n1 [Example 96]", "EC50": "> 500 nM"}
{"compound": "COC(=O)c1cc2c(N3CCN(C(=O)Cc4cccc(C#N)c4)C4(CC4)C3)ncnc2[nH]1 [Example 123]", "EC50": "> 500 nM"}

Consider the following items and state reported EC50 for each.
1. O=C(C1Cc2ccccc21)N1CCN(c2ncnc3[nH]ccc23)CC12CC2 (centres unmarked) [Example 125]
2. O=C(CCc1ccccc1)N1[C@@H]2CC[C@@H]1CN(c1ncnc3[nH]ccc13)C2 [Example 168]
3. COCCCNC(=S)N1[C@@H]2CC[C@H]1CN(c1ncnc3[nH]ccc13)C2 [Example 39]
4. O=C(c1ccccc1)N1[C@@H]2CC[C@H]1CN(c1ncnc3[nH]ccc13)C2 [Example 33]

### Response
1: > 500 nM; 2: > 500 nM; 3: > 500 nM; 4: 100 to 500 nM
